Where do these numbers come from? They come from ChEMBL document CHEMBL1201862.

Tested on: UACC-257
Procedure text: NCI tumour cell line growth inhibition, 48 h
Active and inactive are the calls of the source. No stated cut-off is given here; in the data, active = GI50 up to about 1.1 µM and inactive = higher.
Measurement name: GI50

Worked examples, 4 compounds total:
{"columns": ["Compound", "GI50"],
 "data": [
  ["CCOC(=O)c1csc(NC(=O)C(C)N2CCCC2)n1 (stereo unspecified)", "> 100 µM (inactive)"],
  ["COc1cccc(C2c3cc4c(cc3OC(NNC(N)=O)C2C)OCO4)c1O (stereo unspecified)", "3.42 µM (inactive)"],
  ["CC(C)(C)c1cc(C(=O)/C=C/C=C/c2ccccc2)cc(C(C)(C)C)c1O", "6.53 µM (inactive)"],
  ["CCC(C)[C@H]1C(=O)N=C(N)N1C(=O)OCc1ccccc1 (stereo partly specified)", "> 100 µM (inactive)"]
]}

Record CC12NC(=C(C#N)C#N)C(C#N)=C3NC(N)=C(C#N)C(=C31)Oc1ccccc12 (stereo unspecified) . Reported GI50: > 100 µM (inactive)

Record O=C(/C(=C\c1ccc(Cl)cc1)c1ccccc1)c1ccccc1 . Reported GI50: 42.5 µM (inactive)

Record O=C1c2cc3c(cc2CC12Cc1cc4c(cc1C2)CCC4)CCC3 . Reported GI50: > 100 µM (inactive)

Record Cc1ccc(/C(=C\C(=O)C(=O)NC23CC4CC(CC(C4)C2)C3)Sc2ccccc2)cc1 . Reported GI50: > 10 µM (inactive)

Record CC1(C)OCN(c2ccc(N3CCOCC3)cc2)Cn2c1nc1ccccc12 . Reported GI50: 46.1 µM (inactive)

Record Cc1cn(C2CC(N(O)Cc3ccccc3)C(CO)O2)c(=O)[nH]c1=O (stereo unspecified) . Reported GI50: > 100 µM (inactive)

Record COc1cccc(C2c3cc4c(cc3OC(N3CCCCC3)C2C)OCO4)c1O (stereo unspecified) . Reported GI50: 8.04 µM (inactive)

Record CC(C)NC(=O)N(Nc1ccccc1)C(C)(C)C . Reported GI50: > 100 µM (inactive)

###

// values below are reported GI50
Tested on: EKVX
Procedure text: NCI tumour cell line growth inhibition, 48 h
Activity calls are given as the source filed them. No stated cut-off is given here; in the data, active = GI50 up to about 1.1 µM and inactive = higher.

{"columns": ["Smiles structure", "Assay target", "GI50"],
 "data": [
  ["Cc1nc2ccc(F)cc2c2c1CCN2c1ccccc1", "EKVX", "22.4 µM (inactive)"]
]}

Record O=C1/C(=C\c2ccc(Br)cc2)CCCc2ccccc21 . Reported GI50: 17.5 µM (inactive)

Record O/N=C1\Nc2ccccc2OCc2cc(Br)c(Br)cc2COc2ccccc2N\C1=N/O . Reported GI50: 15.2 µM (inactive)

Record N#Cc1ccsc1Nc1ccccc1[N+](=O)[O-] . Reported GI50: 36.6 µM (inactive)

Record O=S(=O)(O)Nc1ccc(-c2nc3ccccc3s2)cc1Cl . Reported GI50: > 100 µM (inactive)

Record Cc1ccc(S(=O)(=O)N/N=C\c2c3ccccc3[n+](C)c3ccccc23)cc1 . Reported GI50: 54.6 µM (inactive)

###

Test system: SF-539
Procedure text: NCI tumour cell line growth inhibition, 48 h
Calls of active or inactive are those of the source. No stated cut-off is given here; in the data, active = GI50 up to about 1.1 µM and inactive = higher.
Measurement name: GI50

{"columns": ["Compound", "Assay target", "Val"],
 "data": [
  ["CC(C)CC(=O)NC(Nc1ccc(S(=O)(=O)Nc2ncccn2)cc1)(C(F)(F)F)C(F)(F)F", "SF-539", "> 100 µM (inactive)"],
  ["C1CCNCC1.Oc1ncnc2[nH]cc(CN3CCCCC3)c12", "SF-539", "71.4 µM (inactive)"]
]}

Record C/C(CCn1[nH]c(=O)ccc1=O)=N\O . Reported GI50: > 100 µM (inactive)

Record O=S(=O)(N/N=C/c1ccc(Cl)c(Cl)c1)c1ccccc1 . Reported GI50: 44.8 µM (inactive)

Record COc1cccc(C2c3cc4c(cc3OC(N3CCCCC3)C2C)OCO4)c1O (stereo unspecified) . Reported GI50: 2.22 µM (inactive)

Record CCOC(=O)Nc1ccc(S(=O)(=O)I)cc1.CCOC(=O)Nc1ccc(S(=O)(=O)I)cc1.CN(C=O)C1=C(N(C)C=O)C(N(C)C=O)=C(N(C)C=O)C(=O)C1=O . Reported GI50: > 100 µM (inactive)

Record COC(=O)/C=C/c1ccccc1N=[S@](C)(=O)c1ccc(C)cc1 . Reported GI50: 21.8 µM (inactive)

Record CC1(C)OCN(c2ccc(N3CCOCC3)cc2)Cn2c1nc1ccccc12 . Reported GI50: 88.1 µM (inactive)

Record COc1c(C2=NC(C(C)C)CO2)ccc2ccccc12 (stereo unspecified) . Reported GI50: 34.8 µM (inactive)

Record CC(C)(C)c1cc(C(=O)/C=C/C=C/c2ccccc2)cc(C(C)(C)C)c1O . Reported GI50: 14.5 µM (inactive)

Record CC(=O)OCC12C(=O)C[C@@H](C)C3(CC(c4ccoc4)OC3=O)C1CCC(OC(C)=O)C21CO1 (stereo partly specified) . Reported GI50: > 100 µM (inactive)

Record O=C1/C(=N\O)c2ccccc2S1(=O)=O . Reported GI50: > 100 µM (inactive)

Record CCOC(=O)C(=C=C=C(c1ccccc1)c1ccccc1)C(=O)OCC . Reported GI50: 18.4 µM (inactive)

Record CCOC(=O)CNC(=O)C(C)NC(=O)C(NC(=O)CC(c1ncc[nH]1)c1ncc[nH]1)C(C)CC (stereo unspecified) . Reported GI50: > 100 µM (inactive)

###

Tested on: HOP-92
Procedure text: NCI tumour cell line growth inhibition, 48 h
Active and inactive are the calls of the source. Cut-off read from the data, not from the text of the source: active = GI50 up to about 1.1 µM and inactive = higher.
Measurement name: GI50

Worked examples, 5 compounds total:
{"columns": ["Compound", "Val"],
 "data": [
  ["COc1ccc2c(c1)CCCN1Cc3cc(OC)c(OC)cc3CC21 (stereo not given)", "15.9 µM (inactive)"],
  ["CN(C)Cc1cc(C(=O)O)cc(CN(C)C)c1O", "> 100 µM (inactive)"],
  ["Nc1ccn(C2CC(O)C(COP(=O)(S)OC3CC(n4ccc(N)nc4=O)OC3CO)O2)c(=O)n1 (stereo not given)", "> 100 µM (inactive)"],
  ["S=C1NCCN1C(=S)Nc1ccccc1", "66.8 µM (inactive)"],
  ["C=C(Br)C(C)(Cl)CCC(Br)C(C)(C)Cl (stereo not given)", "35.1 µM (inactive)"]
]}

Attention now turns to another entry.
Record CC12NC(=C(C#N)C#N)C(C#N)=C3NC(N)=C(C#N)C(=C31)Oc1ccccc12 (stereo not given) . Reported GI50: > 21.5 µM (inactive)

###

Test system: OVCAR-5
Procedure text: NCI tumour cell line growth inhibition, 48 h
Activity calls are given as the source filed them. Cut-off read from the data, not from the text of the source: active = GI50 up to about 1.1 µM and inactive = higher.
Your answer must be one of the following: active, inactive

Check out these entries, answers already filled in.
{"columns": ["Compound", "Assay target", "Assigned category"],
 "data": [
  ["Cc1ccc(Nc2nc3c(s2)C(=O)c2ccccc2C3=O)cc1", "OVCAR-5", "inactive"],
  ["CCC(=O)NCC1(c2c[nH]c3ccccc23)SCCS1", "OVCAR-5", "inactive"],
  ["O=C(Nc1ccc(/N=N/c2ccccc2)cc1)Sc1ccccc1C(=O)O", "OVCAR-5", "inactive"],
  ["O=C1/C(=c2\\c3ccccc3n3c(=O)c4ccccc4nc23)Nc2ccccc21", "OVCAR-5", "inactive"],
  ["O=c1cnn(C2OC(CO)C(O)C(F)C2O)c(=O)[nH]1 (stereo unspecified)", "OVCAR-5", "inactive"],
  ["O=S(=O)(N/N=C/c1ccc(Cl)c(Cl)c1)c1ccccc1", "OVCAR-5", "inactive"]
]}

In the following, a different compound is considered.
### Prompt I would be grateful if you could indicate the recorded call for C=C1C(=O)C23C(O)C1CC[C@H]2C12CCCC(C)(COC(C)=O)[C@H]1[C@H](O)[C@]3(O)OC2 (stereo partly specified) .
### Response inactive

###

Tested on: SW-620
Procedure text: NCI tumour cell line growth inhibition, 48 h
The source made the active and inactive calls. No stated cut-off is given here; in the data, active = GI50 up to about 1.1 µM and inactive = higher.
Your answer must be one of the following: active, inactive

Check out these entries, answers already filled in.
{"columns": ["Molecule", "Assigned category"],
 "data": [
  ["CCOC(=O)C(=C=C=C(c1ccccc1)c1ccccc1)C(=O)OCC", "inactive"],
  ["CCOC(=O)NNC(=O)NCCNC(=O)NNC(=O)OCC", "inactive"],
  ["CCOP(=O)(OCC)C(Cc1cn(S(=O)(=O)c2ccc(C)cc2)cn1)C(=O)O (stereo not drawn)", "inactive"],
  ["COc1cc(C2c3cc4c(cc3OC(Nc3ccccc3)C2C)OCO4)cc(OC)c1OC (stereo not drawn)", "active"],
  ["NCCCCN(CCCN)C(=O)c1ccccc1", "inactive"]
]}

### Prompt I would be grateful if you could indicate the recorded call for CN1CN(C2OC(CO)C(O)C2O)c2nc(N)[nH]c(=O)c21 (stereo not drawn) .
### Response inactive

### Prompt I would be grateful if you could indicate the recorded call for O=C1N(C2CCCCC2)C(=O)N1C1CCCCC1 .
### Response inactive
